Field: half-life at 1 μg/mL. Provide a value for each of the compounds that follow.
Assay: Stability in plasma from Black 6-Cg mice
Format: in vitro ADME
Conditions: Black 6-Cg (B6-Cg), mouse, 37°C, up to 6 h, acetonitrile quench, LC-MS/MS
Non-standard residues stand in square brackets, D forms with d. Residues, ends and D or L forms follow the SMILES beside them. *: point of attachment. Trp(6-Cl) = N[C@@H](Cc1c[nH]c2cc(Cl)ccc12)C(=O)O; Pip = O=C(O)[C@@H]1CCCCN1; ClAc = O=C(CCl)*

QUERY: Read the entry `NC(=O)[C@H](Cc1c[nH]c2ccc(F)cc12)NC(=O)[C@@H]1CCCCN1C(=O)[C@@H]1Cc2c([nH]c3ccccc23)CN1C(=O)CCl` and write its reported half-life at 1 μg/mL.
RESULT: ~2.5 h

QUERY: Read the entry CNC(=O)[C@H](Cc1c[nH]c2ccccc12)NC(=O)[C@@H]1CCCCN1C(=O)[C@H](Cc1c[nH]c2cc(Cl)ccc12)NC(=O)CCl [164B8] (ClAc-[Trp(6-Cl)]-[Pip]-Trp-NHMe) and write its reported half-life at 1 μg/mL.
RESULT: > 5 h

QUERY: Read the entry NC(=O)[C@H](Cc1c[nH]c2ccccc12)NC(=O)[C@@H]1CCCCN1C(=O)[C@H](Cc1c[nH]c2cc(Cl)ccc12)NC(=O)CCl [158H9] (ClAc-[Trp(6-Cl)]-[Pip]-Trp-NH2) and write its reported half-life at 1 μg/mL.
RESULT: > 5 h

###

Target: human Pin1 (Homo sapiens, UniProt Q13526)
Construct: Residues 1–163 of human Pin1 were expressed with a thrombin cleavage site and a HisTag at the N-terminus; 6xHis (N); thrombin cleavage site (N)
Sequence (Q13526 whole entry, the tested form may be a part): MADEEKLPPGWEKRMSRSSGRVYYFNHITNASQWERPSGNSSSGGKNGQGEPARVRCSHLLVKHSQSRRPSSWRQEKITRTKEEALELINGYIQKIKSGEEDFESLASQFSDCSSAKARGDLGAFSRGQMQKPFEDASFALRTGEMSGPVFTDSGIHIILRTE
Assay: DELFIA displacement assay (biotinylated D-peptide / His-tagged Pin1)
Conditions: DELFIA displacement of biotinylated D-peptide from His-tagged Pin1; compound incubation 6 h; ± standard error of duplicate measurements
From the text: To assess the ability of our agents to bind and inhibit Pin1, we developed a robust biochemical assay based on the dissociation-enhanced lanthanide fluorescent immunoassay (DELFIA) platform. […] Pin1 unfolding causes a nonspecific interaction between the water-quenched fluorescent dye and the protein’s exposed hydrophobic residues, resulting in increased fluorescence. […]
Non-standard residues stand in square brackets, D forms with d. Residues, ends and D or L forms follow the SMILES beside them. *: point of attachment. Trp(6-Cl) = N[C@@H](Cc1c[nH]c2cc(Cl)ccc12)C(=O)O; Pip = O=C(O)[C@@H]1CCCCN1; ClAc = O=C(CCl)*
METRIC_NAME: IC50 (nM)
Express the result in nM but write the number alone.

QUERY: Give measured IC50 for CNC(=O)[C@H](Cc1c[nH]c2ccccc12)NC(=O)[C@@H]1CCCCN1C(=O)[C@H](Cc1c[nH]c2cc(Cl)ccc12)NC(=O)CCl [164B8] (ClAc-[Trp(6-Cl)]-[Pip]-Trp-NHMe) (human Pin1 (Homo sapiens, UniProt Q13526)).
RESULT: 4.65

###

Field: half-life at 1 μg/mL. Provide a value for each of the compounds that follow.
Assay: Wild-type mouse plasma stability
Assay type: in vitro ADME
Details: 37°C, up to 6 h, acetonitrile quench, LC-MS/MS, values given in min, read-out: Stability half-life, Mouse WT (converted)
Non-standard residues stand in square brackets, D forms with d. Residues, ends and D or L forms follow the SMILES beside them. *: point of attachment. Trp(6-Cl) = N[C@@H](Cc1c[nH]c2cc(Cl)ccc12)C(=O)O; Pip = O=C(O)[C@@H]1CCCCN1; ClAc = O=C(CCl)*

QUERY: Read the entry `NC(=O)[C@H](Cc1c[nH]c2ccc(F)cc12)NC(=O)[C@@H]1CCCCN1C(=O)[C@@H]1Cc2c([nH]c3ccccc23)CN1C(=O)CCl` and write its reported half-life at 1 μg/mL.
RESULT: < 10 min

QUERY: Read the entry NC(=O)[C@H](Cc1c[nH]c2ccccc12)NC(=O)[C@@H]1CCCCN1C(=O)[C@H](Cc1c[nH]c2cc(Cl)ccc12)NC(=O)CCl [158H9] (ClAc-[Trp(6-Cl)]-[Pip]-Trp-NH2) and write its reported half-life at 1 μg/mL.
RESULT: ~30 min

Taken from paper PMC12657321.
